- Tested on: Plasmodium falciparum
- assay_method_text: GSK_TCMDC: Inhibition of Plasmodium falciparum Dd2 in whole red blood cells, using parasite LDH activity as an index of growth. Test compounds present at 2uM
- Type: functional
As shown below, each of these compounds has a reported Inhibition value.
endpoint: Inhibition (%)

>>> val("Cl.Nc1ncc(Cc2cc(Cl)c(N)c3ncccc23)c(N)n1")
95
>>> val("CN1CCCC1CCNc1ncc2c(-c3ccc(NC(=O)Nc4cc(C(F)(F)F)ccc4F)cc3)nn(C)c2n1.O=C(O)C(F)(F)F (stereo not drawn)")
72
>>> val("CCN(CC)CCCOC(=O)c1ccc2c(c1)-c1ccc(C(=O)OCCCN(CC)CC)c3cccc-2c13.Cl")
96
>>> val("COc1nc2c(CCN3CC[C@H](NCc4ccc5c(c4)NC(=O)CO5)[C@H](O)C3)c(Cl)cnc2cc1F.Cl")
22
>>> val("Br.CCCCCCCN(CCCCCCC)CCNc1cc(C)nc2ccccc12")
31
>>> val("CN(CCN(C)CC(O)c1ccc(Cl)c(Cl)c1)CC(O)c1ccc(Cl)c(Cl)c1.Cl (stereo not drawn)")
73
>>> val("CC(C)(C)c1nn(-c2ccc(Cl)cc2)c2[nH]c(=O)c(CNCc3cccs3)cc12")
77
>>> val("O=C1Nc2ccc3ncccc3c2/C1=C/Nc1ccc(Cn2ccnc2)cc1")
85
>>> val("O=C(Nc1cccc(CN2CCN(C(=O)c3ccccc3)CC2)c1)c1ccco1.O=C(O)C(F)(F)F")
42
>>> val("N=C(N)c1ccc(NCc2cccc(C(=O)O)c2)cc1.O=C(O)C(F)(F)F")
79
>>> val("O=C(NCCCN1CCC(N2CCCCC2)CC1)c1ccc2nc(N3CCCCC3)sc2c1")
20
>>> val("CN1CCN(c2ccc(-c3cccc(NC(=O)c4cccc(Cl)c4)c3)nn2)CC1")
37
>>> val("Cc1cc(Nc2ncc3c(n2)N(C2CCC2)CC3)ccc1N1CCN(C)CC1.Cl")
100
>>> val("Cc1cc(N2CCN(CC3CCN(C)CC3)CC2)nc(Nc2ccc(Br)cc2)n1")
100
>>> val("O=C1OC2(CN1CC1CCN(Cc3ccc(O)c(Cl)c3)CC1)c1ccccc1-c1ccccc12")
96
>>> val("Cc1c(CN2CCC(N3CCC(C(=O)NC4CC4)CC3)CC2)[nH]c2c(Cl)cccc12")
3
>>> val("Cl.O=C(NCCCCN1CCC(O)(c2ccc3c(c2)OCO3)CC1)c1ccc(NC(=O)c2ccc(Cl)cc2)cc1")
6
>>> val("Cc1ccc(CN2CCN(c3cc4c(cc3Cl)CCN4C(=O)Cc3ccc(Cl)c(NC(=O)Nc4cccc(C#N)c4)c3)CC2)cc1")
29
>>> val("Cc1cccc2nc(-c3ccc(-c4cccc(NC(=O)c5cncn5C)c4)cc3)[nH]c12")
1
>>> val("O=C(Nc1ccc(-c2csc(-c3nc4ccccc4[nH]3)c2)cc1)Nc1ccc(Cl)c(Cl)c1")
18
>>> val("O=C(CCN1C(=O)c2ccccc2C1=O)N1CCN(CC=Cc2ccccc2)CC1")
3
>>> val("Cc1cccc2nc(-c3ccc(-c4cccc(CNCCc5ccncc5)c4)cc3)[nH]c12.O=C(O)C(F)(F)F")
95
>>> val("CC(=O)Nc1ccc(C(=O)Nc2ccc(-c3cccc(-c4nc5cccc(C)c5[nH]4)c3)cc2)cn1")
74
>>> val("COCCN(CCOC)c1ncc(-c2ccsc2)c(-c2nc(C)c(C)s2)n1")
63
>>> val("CCCn1c(Sc2ccc(C#N)c([N+](=O)[O-])c2)nnc1-c1ccc(N(C)C)cc1")
98
>>> val("CCc1c(CCNCCCCCCNCCc2ccc(OC)cc2)ccc(OC)c1OC.Cl")
0
>>> val("CC(C)c1ccc(NC(=O)c2ccc(CN3CCCN(Cc4cccc(Cl)c4)CC3)cc2)cc1.O=C(O)C(F)(F)F")
12
>>> val("COCc1ccccc1C(=O)NCCOc1cc(C)cc(C)c1")
95
>>> val("CCOC(=O)c1c(CN2CCCC2)n(-c2ccccc2)c2cc(Br)c(O)cc12")
53
>>> val("Cc1nc(Nc2ccc(F)cc2)nc(N2CCc3cc(O)ccc3C2C)c1C.Cl (stereo not drawn)")
97
>>> val("CCNc1cc(C(=O)N[C@@H](Cc2ccccc2)[C@H](O)CNCCc2ccccc2)cc(N2CCCCS2(=O)=O)c1.Cl")
91
>>> val("Cc1cc(-c2ccc(CNC3CCN(C)CC3)cc2)ccc1S(=O)(=O)NCc1ccccc1.O=C(O)C(F)(F)F")
97
>>> val("Cc1ccccc1CNc1noc(-c2sccc2Br)n1")
88
>>> val("Cl.Nc1cccc(C=CC(=O)N=c2cc[nH]c3ccccc23)c1")
60
>>> val("Cc1ccc2[nH]c(C)c(Br)c(=O)c2c1")
84
>>> val("CCN(c1ccccc1)S(=O)(=O)c1ccc(OC)c(NC(=O)c2cccc(C(F)(F)F)c2)c1")
70
>>> val("CC(=O)Nc1ccc(OCCN(CC(C)C)c2ccc(C(F)(F)F)c(C#N)c2)c(Cl)c1")
95
>>> val("O=C1C(c2ccccc2)=C(Nc2cccc([N+](=O)[O-])c2)c2ccccc21")
88
